From: PubChem BioAssay (NCI)

Test system: DU-145 prostate
assay_procedure: NCI-60 one-dose screen, 48 h
experimental_conditions: 10 µM unless noted
This is part of a sample that, as a whole, favours compounds with a hit. Of some 83,000 tested, about 20% had one in any assay. Activity calls are given as the source filed them. The calls were made as follows: active = growth percent below 10; inactive = the rest.
Permitted responses: YES (active), NO (inactive)

Look up the recorded call for CC1CC(=O)C2=C(C1)Nc1ccc(Br)cc1CC2c1c[nH]c2ccc(Br)cc12 (stereo not drawn) in this test.
NO

Look up the recorded call for CC(=O)OCCCCN1C=C/C(=C\C(=O)n2ccc3ccccc32)c2ccccc21 in this test.
NO

Look up the recorded call for Cc1ccc(CSC2=C(Cl)CN(c3ccc(Cl)cc3)C2=O)cc1 in this test.
NO

Look up the recorded call for COC(=O)CNC(=O)c1cccc(-c2cc(=O)c3c(OC)c(OC)c(OC)cc3o2)c1 in this test.
NO

Look up the recorded call for O=C(CSc1nnc(-c2ccc(Cl)cc2)n1-c1ccccc1)Nc1ccccc1Cl in this test.
NO

Look up the recorded call for O=C(Nc1ccc(Cl)c(C(F)(F)F)c1)Nc1ccc2c(ccn2C(=O)c2cccc(F)c2)c1 in this test.
NO

Look up the recorded call for CN1CCN(Cc2ccc(NC(=O)c3cncc(C#Cc4cnc5ccc(OCC6COC6)nn45)c3)cc2C(F)(F)F)CC1 in this test.
YES

Look up the recorded call for Nc1cc(C(=O)N/N=C\c2ccc(OC(F)F)c(OC3CCCC3)c2)nn1CC(O)c1ccccc1 (stereo not drawn) in this test.
NO

Look up the recorded call for N#Cc1c(-c2cccs2)cc(-c2cnccn2)nc1SCC(=O)N/N=C/c1ccc(Cl)cc1 in this test.
NO

Look up the recorded call for CN1CCN(c2ccc(Nc3nc(NCCCNS(=O)(=O)c4cccc(F)c4)c4sccc4n3)cc2)CC1 in this test.
NO

Look up the recorded call for N/C(=N\C(N)=N\c1nc2ccccc2s1)c1ccc(Cl)cc1 in this test.
NO

Look up the recorded call for O=S1SC(c2ccccc2)=NN1c1cc(F)cc(F)c1 (stereo not drawn) in this test.
NO

Look up the recorded call for CC1(C)CC[C@]23CC[C@]4(C)[C@H](CC[C@@H]5[C@@]6(C)CC[C@H](NCO)C(C)(C)[C@@H]6CC[C@]54C)[C@H]2[C@H]1OC3 in this test.
NO

Look up the recorded call for O=C(CSc1nc2ccccc2c(=O)n1-c1ccc(Cl)c(Cl)c1)Nc1ccc(S(=O)(=O)Nc2ccc(Cl)nn2)cc1 in this test.
NO

Look up the recorded call for CNCCN(C)c1ccc(Nc2cc(NC3CC3)n3ncc(C#N)c3n2)cc1NC(C)=O in this test.
NO

Look up the recorded call for COc1ccc(-c2cc(-c3ccc(N4CCOCC4)cc3)n3c(n2)nc2ccccc23)cc1OC in this test.
NO

Look up the recorded call for Brc1cccc(-c2cc(-c3ccc4c(c3)OC=CO4)[nH]n2)c1 in this test.
NO

Look up the recorded call for CC(C)=CCC[C@](C)(O)[C@H]1CC[C@]2(C)[C@@H]1CC[C@@H]1[C@@]3(C)CC[C@H](N)C(C)(C)[C@@H]3CC[C@]12C in this test.
NO
